# koff values compiled below
TGT: T1, recombinant human PAD4 (human, UniProt Q9UM07 1-663)
T1 construct: also called rhPAD4; hPAD4
PROTOCOL_DESCRIPTION: SPR 37 C, captured antibody, PAD4 analyte, 1 mM CaCl2
API: value field is a number in s⁻¹; no unit string.

Illustrative cases are given below, each with its answer.
BINDER: hz13-5 (antibody, IgG1, V domains shown, also called clone 13-based hz13-5 antibody; parent hz13-5) VH: EVLLVQSGAEVKKPGASVKLSCTSSDFNIKDHFIHWVRQAPGKGLEWMGRIDPEDDETKYAPKFQDRVTMTADTSTDTAYMELSSLRSEDTAVFYCAGYGNYEGAMDYWGQGTLVTVSS VL: DIQMTQSPSSLSASVGDRVTITCRASENVNNYGIGFMNWFQQKPGKAPKLLIYAASRRGSGVPSRFSGSGSGTDFTLTISSLQPEDFATYFCQQSKEVPYTFGQGTKVEIK
UNIT_SYMBOL: s⁻¹
koff: 0.00012
--
BINDER: hz13-9 (antibody, V domains shown, light constant region not tied to this antibody) VH: EVLLVQSGAEVKKPGASVKLSCTSSDFNIKDHFIHWVRQAPGKGLEWIGRIDPEDDETKYAPKFQDRVTITADTSTDTAYLELSSLRSEDTAVFYCAGYGNYEGAMDYWGQGTLVTVSS VL: DIVMTQSPSSLSASVGDRVTLTCRASENVNNYGIGFMNWFQQKPGKAPKLLIYAASRRGSGVPSRFSGSGSGTDFTLTISSMQPEDFATYFCQQSKEVPYTFGQGTKLEIK
UNIT_SYMBOL: s⁻¹
koff: 0.00016

What value of koff has been recorded for this entry: hz13-10 (antibody, V domains shown, light constant region not tied to this antibody) VH: EVQLVQSGAEVKKPGATVKISCKVSDFNIKDHFIHWVQQAPGKGLEWMGRIDPEDDETKYAPKFQDRVTITADTSTDTAYMELSSLRSEDTAVYYCAGYGNYEGAMDYWGQGTTVTVSS VL: DVVMTQSPLSLPVTLGQPASISCRASENVNNYGIGFMNWFQQRPGQSPRLLIYAASRRGSGVPDRFSGSGSGTDFTLKISRVEEEDVGVYYCQQSKEVPYTFGGGTKVEIK 0.00017
